# collection of Ki values tested on Prostaglandin E2 receptor EP2 subtype (Homo sapiens)
# Sequence (P43116 whole entry): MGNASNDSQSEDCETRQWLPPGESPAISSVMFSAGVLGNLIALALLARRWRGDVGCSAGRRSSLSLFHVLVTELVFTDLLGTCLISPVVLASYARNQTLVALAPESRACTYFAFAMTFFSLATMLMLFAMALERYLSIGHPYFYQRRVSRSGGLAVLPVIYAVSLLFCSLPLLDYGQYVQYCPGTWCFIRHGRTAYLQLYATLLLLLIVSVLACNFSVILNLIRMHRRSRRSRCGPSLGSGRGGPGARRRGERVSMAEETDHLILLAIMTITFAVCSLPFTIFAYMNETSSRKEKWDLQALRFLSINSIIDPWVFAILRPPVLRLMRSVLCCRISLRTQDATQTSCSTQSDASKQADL
experimental_endpoint: Ki

INSERT INTO results (compound, target_or_test_system, experimental_endpoint, assay_result) VALUES
  ('CC(C)(C)NC(=O)NS(=O)(=O)c1ccccc1-c1ccc(CN2C(=O)c3ccccc3CCc3ccccc32)cc1', 'Prostaglandin E2 receptor EP2 subtype (Homo sapiens)', 'Ki', '> 100 µM'),
  ('CC(C)(C(=O)NS(=O)(=O)c1ccccc1-c1ccc(CN2C(=O)c3ccccc3CCc3ccccc32)cc1)c1ccccc1', 'Prostaglandin E2 receptor EP2 subtype (Homo sapiens)', 'Ki', '23 µM'),
  ('CC(C(=O)NS(=O)(=O)c1ccccc1-c1ccc(CN2C(=O)c3ccccc3CCc3ccccc32)cc1)c1ccccc1 (stereo not drawn)', 'Prostaglandin E2 receptor EP2 subtype (Homo sapiens)', 'Ki', '> 100 µM'),
  ('CO[C@](C(=O)NS(=O)(=O)c1ccccc1-c1ccc(CN2C(=O)c3ccccc3CCc3ccccc32)cc1)(c1ccccc1)C(F)(F)F', 'Prostaglandin E2 receptor EP2 subtype (Homo sapiens)', 'Ki', '11 µM'),
  ('O=C(CCc1ccccc1)NS(=O)(=O)c1ccccc1-c1ccc(CN2C(=O)c3ccccc3CCc3ccccc32)cc1', 'Prostaglandin E2 receptor EP2 subtype (Homo sapiens)', 'Ki', '> 100 µM'),
  ('CN(C(=O)NCCc1ccccc1)S(=O)(=O)c1ccccc1-c1ccc(CN2C(=O)c3ccccc3CCc3ccccc32)cc1', 'Prostaglandin E2 receptor EP2 subtype (Homo sapiens)', 'Ki', '> 100 µM'),
  ('O=C(NS(=O)(=O)c1ccccc1-c1ccc(CN2C(=O)c3ccccc3CCc3ccccc32)cc1)OCc1ccccc1', 'Prostaglandin E2 receptor EP2 subtype (Homo sapiens)', 'Ki', '11 µM'),
  ('CCCCNC(=O)NS(=O)(=O)c1ccccc1-c1ccc(CN2C(=O)c3ccccc3CCc3ccccc32)cc1', 'Prostaglandin E2 receptor EP2 subtype (Homo sapiens)', 'Ki', '> 100 µM');
